# credit: ChEMBL document CHEMBL1157539

Tested on: Plasmodium falciparum
test-summary: GSK_TCMDC: Inhibition of Plasmodium falciparum Dd2 in whole red blood cells, using parasite LDH activity as an index of growth. Test compounds present at 2uM
Assay type: functional
Below: a set of entries, each annotated with reported Inhibition.
The answer consists of two parts: a number and, after it, its unit.

Use these answered entries as a reference point.
# query: Inhibition of entry C#CCN1CCC2=C(C1)c1c(O)cc(C(C)CCCc3ccc(F)cc3)cc1OC2(C)C (stereo not given) 90%

# query: Inhibition of entry COc1cccc(O)c1CNCC(O)c1cccc(C(F)(F)F)c1 (stereo not given) 96%

# query: Inhibition of entry CC[C@H]1CN2CC[C@@H]1C[C@H]2[C@H](O)c1cc(N2CCC(O)CC2)nc2ccc(OC)cc12 92%

# query: Inhibition of entry O=C(/C=C/c1cc(F)cc(C(F)(F)F)c1)N1CCC(CN2CCC(c3c[nH]c4ccccc34)CC2)CC1 74%

# query: Inhibition of entry CC1(C)CCCN(C(=O)Cc2ccc3c(c2)CCCC3)C1CN1CC=CC1.Cl (stereo not given) 1%

***
# query: Inhibition of entry CNCCCCCCOc1ccc(CC(C)NCC(O)c2cccc(C(F)(F)F)c2)cc1.Cl (stereo not given) 79%

# query: Inhibition of entry Cc1[nH]c2ccccc2c1C1=CCN(CCCCC2(C)C(=O)Nc3cccc(F)c32)CC1 (stereo not given) 90%

# query: Inhibition of entry CC(Cc1ccc(SC(C)C)cc1)NCC(O)c1cccc(Cl)c1.Cl (stereo not given) 97%

# query: Inhibition of entry OC(CNC1CCCCC1)c1ccc(Cl)c(Cl)c1 (stereo not given) 96%

# query: Inhibition of entry O=C(/C=C/c1ccccc1Cl)NC1CCC(CN2C3CCC2CC(c2c[nH]c4ccccc24)C3)CC1 (stereo not given) 98%
